assay: Clearance in mouse at 10 mg/kg, iv and 20 mg/kg, po; settings: in vivo
parameter-measured: clearance (mL/min/kg)
Could you give me the number in mL/min/kg? Just the number is fine.

Fill in the blank: the reported clearance of "O=C(O)c1cccnc1" is ____.
167

---

test: Aqueous stability at pH 2.5 after 6 hrs; type: physicochemical; conditions: aqueous solution, read-out: Stability
parameter-measured: remaining at 6 h (%)
Could you give me the number in %? Just the number is fine.

CC(CC(=O)NC1=C(C(=O)O)CCCC1)c1csc(-c2ccc(O)cc2Cl)n1 (stereo not drawn)
97

// moving on: another record for remaining at 6 h
Fill in the blank: the reported remaining at 6 h of "Cc1c(C[C@@H](C)C(=O)NC2=C(C(=O)O)CCCC2)cnn1-c1ccc(O)cc1" is ____.
100

---

Below are pIC50 values recorded for Cytochrome P450 2C8 (Homo sapiens).
Field pIC50 (float): negative decimal logarithm of the concentration in molar.

Cc1c(CCC(=O)Nc2ccccc2C(=O)O)cnn1-c1ccc(O)cc1
4.55

// moving on: another record for pIC50
API: value(readout= pIC50, system= Cytochrome P450 2C8 (Homo sapiens), query= "O=C(CCc1csc(-c2ccc(O)cc2Cl)n1)Nc1ccccc1C(=O)O" )
5.55

---

experiment: in vivo; settings: mouse, po, 20 mg/kg
parameter-measured: bioavailability (%)
Could you give me the number in %? Just the number is fine.

Fill in the blank: the reported bioavailability of O=C(O)c1cccnc1 [NIACIN] is ____.
100

---

experiment: Half life in mouse at 1 mg/kg, iv and 2 mg/kg, po; type: ADME, organism-based; conditions: in vivo
The label is T for half-life below 2 h and F for half-life equal to or exceeding 2 h.

Example results:
O=C(CCc1ccc(-c2ccccc2)cc1)NC1=C(C(=O)O)CCC1
F
O=C(CCc1ccc(-c2ccccc2)cc1)Nc1ccccc1C(=O)O
T
Cc1c(C[C@@H](C)C(=O)NC2=C(C(=O)O)CCCC2)cnn1-c1ccc(O)cc1
F
O=C(CCc1csc(-c2ccc(O)cc2Cl)n1)Nc1ccccc1C(=O)O
T

Shifting focus to the molecule that follows.
Lab note: confirm whether the reported half-life for this molecule is below 2 h, equality not counting. molecule: CC(CC(=O)NC1=C(C(=O)O)CCCC1)c1csc(-c2ccc(O)cc2Cl)n1 (stereo not given)
F

---

test: Cmax in mouse at 1 mg/kg, iv and 2 mg/kg, po; type: ADME, organism-based; details: in vivo
parameter-measured: Cmax (µM)
Could you give me the number in µM? Just the number is fine.

Worked cases, Cmax given:
O=C(CCc1ccc(-c2ccccc2)cc1)NC1=C(C(=O)O)CCC1
15
CC(CC(=O)NC1=C(C(=O)O)CCCC1)c1csc(-c2ccc(O)cc2Cl)n1 (stereo not given)
11.3
Cc1c(C[C@@H](C)C(=O)NC2=C(C(=O)O)CCCC2)cnn1-c1ccc(O)cc1
4.78
O=C(CCc1csc(-c2ccc(O)cc2Cl)n1)Nc1ccccc1C(=O)O
2.14

Fill in the blank: the reported Cmax of "O=C(CCc1ccc(-c2ccccc2)cc1)Nc1ccccc1C(=O)O" is ____.
4.1

---

test: Volume of distribution at steady state in mouse at 1 mg/kg, iv and 2 mg/kg, po; format: ADME, organism-based; conditions: in vivo, read-out: Vdss
# Vd >= 0.4 L/kg gives Fulfilled, anything below gives Not fulfilled

Example results:
CC(CC(=O)NC1=C(C(=O)O)CCCC1)c1csc(-c2ccc(O)cc2Cl)n1 (stereo not given)
Not fulfilled
O=C(CCc1csc(-c2ccc(O)cc2Cl)n1)Nc1ccccc1C(=O)O
Not fulfilled
Cc1c(C[C@@H](C)C(=O)NC2=C(C(=O)O)CCCC2)cnn1-c1ccc(O)cc1
Fulfilled

Shifting focus to the compound that follows.
Is it the case that "O=C(CCc1ccc(-c2ccccc2)cc1)Nc1ccccc1C(=O)O" has Vd reaching or exceeding 0.4 L/kg?
Not fulfilled
